Hello, the source for this data is patent US20240279221A1, in case you need it.

molecular target: SOS1:KRAS (G12C) interaction (Homo sapiens (Human), UniProt Q07889); experiment: SOS1-KRas(G12C) FRET Assay; conditions: 0.5 nM His10-SOS1 (res. 564-1049), 2.5 nM GST-KRAS (res. 1-169, G12C); read-out: SOS-KRas(G12C) FRET IC50
Sequence (Q07889 564-1049, stated change not applied): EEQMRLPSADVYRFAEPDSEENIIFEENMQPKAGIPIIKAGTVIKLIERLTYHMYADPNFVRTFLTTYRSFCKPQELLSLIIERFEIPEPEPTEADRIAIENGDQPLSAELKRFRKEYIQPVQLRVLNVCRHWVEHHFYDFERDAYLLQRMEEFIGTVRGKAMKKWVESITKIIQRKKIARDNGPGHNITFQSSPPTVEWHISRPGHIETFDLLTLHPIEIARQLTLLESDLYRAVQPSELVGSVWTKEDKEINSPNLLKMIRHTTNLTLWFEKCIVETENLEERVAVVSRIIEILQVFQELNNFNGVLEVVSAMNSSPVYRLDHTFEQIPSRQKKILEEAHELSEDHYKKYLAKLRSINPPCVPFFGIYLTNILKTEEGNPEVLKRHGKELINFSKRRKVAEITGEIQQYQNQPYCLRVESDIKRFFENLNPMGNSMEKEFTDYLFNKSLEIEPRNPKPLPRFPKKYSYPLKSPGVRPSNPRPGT
ASSAY_READOUT: IC50 (nM)

(A) CCOc1c(=O)n(C2CC2)cc2c(N[C@H](C)c3cccc(C(F)(F)F)c3C)nn(C)c(=O)c12 [Example 19]
(B) Cc1c([C@@H](C)Nc2nn(C)c(=O)c3c([C@@H]4CCCN4)c(=O)n(C4CC4)cc23)cccc1C(F)(F)F (single isomer, unassigned) [Example 34]
(C) C[C@H](Nc1nn(C)c(=O)c2cc(=O)n(C3(C(F)F)CC3)cc12)c1cccc(C(F)(F)c2ccncc2)c1F [Example 175]
-- ask Could you list the above compounds by IC50, going from the biggest number down? Returns: the labels listed in the requested order.
-- reply C, A, B
(C: 4490 nM, A: 806 nM, B: 43.9 nM)

(I) Cc1c([C@@H](C)Nc2nn(C)c(=O)c3c(Cl)c(=O)n(C4CC4)cc23)cccc1C(F)(F)F [Example 11]
(II) Cc1cc([C@@H](C)Nc2nn(C)c(=O)c3cc(=O)n(C4CC4)cc23)cc2c1c(C#N)nn2C (single isomer, unassigned) [Example 27]
(III) C[C@@H](Nc1nn(C)c(=O)c2cc(=O)n([C@]3(C(F)(F)F)CCN(C)C3)cc12)c1cccc(C(F)F)c1F (single isomer, unassigned) [Example 98]
(IV) C[C@@H](Nc1nn(C)c(=O)c2cc(=O)n([C@@H]3CC34CCC(F)(F)CC4)cc12)c1cccc(C(F)F)c1F (single isomer, unassigned) [Example 131]
(V) C[C@@H](Nc1nn(C)c(=O)c2cc(=O)n(C3CCOCC3)cc12)c1cccc(C(F)(F)F)c1 [Example 5]
-- ask Put the entries in order of IC50, starting with the largest number. Returns: the labels listed in the requested order.
-- reply II, III, I, IV, V
(II: 1530 nM, III: 989 nM, I: 592 nM, IV: 277 nM, V: 96.4 nM)
